Assay: E. coli acrAB mutant growth effects, primary screen, E. coli filamentation inducers, strain DRC39, OD650, 48 h (AID 1179);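 further: screen aims at cell division blockers that make cells filament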
Conditions: E. coli DRC39 delta-acrAB growth, higher = more signal, called active from +8 up or from −8 down
// N strictly below -0.2 in z-score; Y otherwise

Compound	Assigned Class
CCCNC(=O)[C@@]1(Sc2ccc(C)cc2)CC(=O)N(Cc2cc(C(F)(F)F)cc(C(F)(F)F)c2)[C@@H]1c1ccc(CO)cc1	Y
C[C@]1(C(=O)NC2CC2)c2ccccc2C(=O)N(Cc2cc(F)cc(C(F)(F)F)c2)[C@H]1c1ccc(CO)cc1	Y
C=C(C)C1CN([C@H](CO)c2ccccc2)C(=O)/C1=C\c1ccccc1 (some centres not stated)	N
C=C(C(=O)CC[C@@H](OC(=O)c1ccccc1-c1ccccc1C(=O)O)c1ccc(CO)o1)C(C)C	Y
O=C1C2C=CC(C(O)C3CC=CCC3)N(Nc3ccc([N+](=O)[O-])cc3)C2C(=O)N1c1ccccc1 (configuration not stated)	N
COCCOC(=O)N1C(=O)[C@@]2(c3cc(C#CCC(C(=O)OC)C(=O)OC)ccc31)[C@H](c1ccc(O)cc1)N1[C@H](c3ccccc3)[C@H](c3ccccc3)OC(=O)[C@H]1[C@@H]2C(=O)N1CCc2cc(OC)c(OC)cc2C1	Y
C=C(CCCC)C(=O)CC[C@H](OC(=O)c1ccccc1-c1ccccc1C(=O)O)c1cccc(OCCO)c1	N
